B1: TSN (parent)
chain: FLAAEQDIREEIRKVVQSLEQTAR

Variants of: B1
Experiment: protein stability index of a GFP-peptide fusion (GPS, HEK-293T) (PSI 1-6); higher = more stable;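 note: lentivirally expressed fusions sorted by FACS into six bins by GFP to DsRed ratio, PSI derived from sequencing read proportions per bin multiplied by bin number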
Conditions: c terminus: a fixed tail appended
The threshold is inclusive: protein stability index of exactly 2 counts as 1; values below receive 0.

VARIANT_NOTATION | LABEL_CLASS
L19V | 1
E10S | 1
A4F | 1
S18G | 0
E5L | 1
I8K | 1
F1M | 1
R13M | 1
R24G | 1
A3V | 0
E20A | 1
Q6Y | 1
D7W | 1
I12G | 1
A23T | 0
V16R | 1
S18K | 1
A3G | 0
R9D | 1
Q6R | 1
A23H | 1
A23F | 1
Q6G | 0
Q6I | 1
E10Q | 0
Q17D | 0
V15M | 1
K14L | 1
S18I | 0
K14V | 0
Q21T | 0
R13W | 1
A4V | 0
A4L | 1
A4T | 1
E10R | 1
I12T | 1
L2H | 0
L19A | 1
E11W | 0
R24C | 0
L19K | 1
S18M | 1
E11P | 1
R13E | 0
Q21V | 0
R24D | 1
R13L | 0
V16L | 1
K14I | 0
A3P | 1
A3W | 0
D7L | 1
I8D | 1
E11I | 0
A23M | 0
R24K | 0
Q6F | 0
L2V | 0
E11C | 1
E5G | 1
V16M | 0
E11R | 1
L19I | 1
T22Y | 0
T22L | 1
A3N | 0
E11F | 0
Q21D | 0

Values compiled from the supplement of paper PMC10567573.
